FYI, the data here is from patent US7015231B2.

assay system: TrkA (Homo sapiens)
Construct: The enzyme is a GST-fusion of the intracellular domain expressed in SF9 cells; GST
Sequence (P04629 440-796 limits assumed, species assumed): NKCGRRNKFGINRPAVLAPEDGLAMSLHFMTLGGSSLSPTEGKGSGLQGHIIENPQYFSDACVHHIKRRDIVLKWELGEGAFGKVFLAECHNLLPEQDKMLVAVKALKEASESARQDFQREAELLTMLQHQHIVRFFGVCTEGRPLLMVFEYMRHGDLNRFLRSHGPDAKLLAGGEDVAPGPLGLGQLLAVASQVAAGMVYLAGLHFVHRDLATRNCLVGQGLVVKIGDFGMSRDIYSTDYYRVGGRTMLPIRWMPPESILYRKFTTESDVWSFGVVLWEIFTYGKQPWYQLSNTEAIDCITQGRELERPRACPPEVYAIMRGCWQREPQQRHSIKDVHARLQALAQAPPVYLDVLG
experimental protocol: TrkA substrate phosphorylation assay (tyrosine kinase activity, synthetic peptide substrate, 33P-ATP, p81 filter plates)
condition info: GST-fusion of the TrkA intracellular domain, 30 uM ATP, 50 uM Src peptide, RT for 120′

{"columns": ["compound structure string", "IC50"],
 "data": [
  ["COc1ccccc1-c1cc(C=C2C(=O)Nc3ncc(Br)cc32)cc(Br)c1O", "< 0.01 µM"],
  ["O=C1Nc2cccnc2C1=Cc1c[nH]c2ccccc12", "0.01 to 0.25 µM"],
  ["Cn1cc(C=C2C(=O)Nc3ncccc32)c2ccccc21", "< 0.01 µM"],
  ["O=C1Nc2ncccc2C1=Cc1c[nH]c2ccccc12", "< 0.01 µM"]
]}
